Target: T1, human thrombin receptor (PAR1) (human, UniProt P25116 42-425)
T1 sequence (looked up): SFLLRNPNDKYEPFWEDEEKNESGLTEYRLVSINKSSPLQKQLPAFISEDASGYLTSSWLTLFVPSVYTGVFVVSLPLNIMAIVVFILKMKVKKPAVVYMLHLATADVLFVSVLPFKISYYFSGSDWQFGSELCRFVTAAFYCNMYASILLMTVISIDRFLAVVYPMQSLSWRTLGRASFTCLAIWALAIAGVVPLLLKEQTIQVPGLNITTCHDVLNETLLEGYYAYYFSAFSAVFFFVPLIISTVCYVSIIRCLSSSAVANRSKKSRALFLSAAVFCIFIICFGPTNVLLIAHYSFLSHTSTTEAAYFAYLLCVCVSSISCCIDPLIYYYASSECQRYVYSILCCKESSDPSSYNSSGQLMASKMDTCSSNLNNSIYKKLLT
Test: cell-based or functional assay
Outcome measure: decrease in thrombin-mediated HA-MAPK activity against pcDNA (%)

- Binder: "MGLHDNLKQLMLQ [Gα13 C-terminal minigene peptide (pcDNA-Gα13)]"
  Experimental result: 77
- Binder: "MGIKNNLKDCGLF [Gαi C-terminal minigene peptide (pcDNA-Gαi)]"
  Experimental result: 59
- Binder: "MGLQENLKDIMLQ [Gα12 C-terminal minigene peptide (pcDNA-Gα12)]"
  Experimental result: 50
- Binder: "MGLQLNLKEYNAV [Gαq C-terminal minigene peptide (pcDNA-Gαq)]"
  Experimental result: 57

// provenance: patent US20040018558A1
